Source listed as patent US20140357713A1.

- System: Aspergillus niger
- assay-comment: Extended time kill study, Example 34 (0 to 24 h)
- Type: cell-based
- experimental-setup: 4 × MIC, 6 h
Structures can show the parent of a compound that is named as a salt.
property: Viable counts in Log10 CFU/mL (Log10 CFU/mL)
Numbers only, in Log10 CFU/mL.

[[record]]
compound = "CCCCCCCCCCCCOC(=O)C(C)NC(C)C.Cl (centres unmarked) [Nex-60]"
value_reported = 3

[[record]]
compound = "CCCCCCCCCCCCOC(=O)C(C)NCCN(CC)CC.Cl (centres unmarked) [Nex-62]"
value_reported = 5.20

[[record]]
compound = "CCCCCCCCCCCCOC(=O)C(C)NC.Cl (centres unmarked) [Nex-59]"
value_reported = 4.04

[[record]]
compound = "CCCCCCCCCCCCOC(=O)C(C)N(C)C (centres unmarked) [Nex-05, hydrochloride]"
value_reported = 4


// next item, Viable counts in Log10 CFU/mL requested
Record CCCCCCCCCCCCOC(=O)C(C)NCCO.Cl (centres unmarked) [Nex-61] / Aspergillus niger, Viable counts in Log10 CFU/mL recorded as 4.95
